From: PubChem BioAssay AID1209

# target_or_test_system: Mannose-6-phosphate isomerase (Homo sapiens) (UniProt P34949)
# Sequence (P34949 whole entry, looked up): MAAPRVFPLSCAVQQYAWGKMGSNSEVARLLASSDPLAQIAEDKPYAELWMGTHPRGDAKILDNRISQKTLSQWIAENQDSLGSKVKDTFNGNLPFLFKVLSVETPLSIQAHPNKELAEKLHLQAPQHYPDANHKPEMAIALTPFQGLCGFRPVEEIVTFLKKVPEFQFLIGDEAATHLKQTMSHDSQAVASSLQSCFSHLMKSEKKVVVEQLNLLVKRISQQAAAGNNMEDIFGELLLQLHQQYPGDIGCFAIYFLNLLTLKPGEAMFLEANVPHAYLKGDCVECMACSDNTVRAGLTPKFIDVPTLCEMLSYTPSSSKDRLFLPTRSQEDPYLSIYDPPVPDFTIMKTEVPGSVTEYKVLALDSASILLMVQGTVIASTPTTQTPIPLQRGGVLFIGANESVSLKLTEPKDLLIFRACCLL
# experimental_protocol: inhibitors of human PMI, primary screen, biochemical, fluorescence intensity, coupled assay (AID 1209);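 further: plate controls were DMSO vehicle for no effect and wells lacking substrate for full effect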
# experimental_conditions: purified PMI enzyme, at 20 µM
Screen size: about 190,000 compounds; about 810 (0.43%) were called active. No stated cut-off is given here; in the data, active means inhibition above about 50%; inactive means the rest. The full list was thinned out, with actives kept by preference.
Classes used: Yes (active), No (inactive)

NC1=NC(=Nc2ccc(Br)cc2)c2ccccc21 : No
C/C(=N\NC(=O)Cc1ccccc1)c1cccs1 : No
COCc1c(C#N)c(NCCc2ccccc2)nc(C)c1[N+](=O)[O-] : No
COc1ccccc1-n1c(-c2ccc(NS(C)(=O)=O)cc2)n[nH]c1=S : No
c1cc2c3c(cccc3c1)C(N1CCCCC1)=N2 : No
COc1ccc(-n2ccnc2SCC(=O)NC2CCCC2)c(OC)c1 : No
c1cc2c3c(cccc3c1)C(N1CCCCCC1)=N2 : No
Cc1ccc(NC(=O)/C(=C/c2cccc([N+](=O)[O-])c2)NC(=O)C2CCCCC2)cc1 : No
Oc1ccc(Cl)cc1C=Nc1ccc2c3c(cccc13)CC2 : Yes
COc1ccc(CCNC(=O)c2nnn(-c3cccc(C)c3)c2N)cc1OC : No
COc1ccccc1NC(C)C(=O)Nc1ccc(C(C)=O)cc1 (centres undefined) : No
O=C(CSc1nc2ccc(S(=O)(=O)N3CCOCC3)cc2[nH]1)N1CCOCC1 : Yes
Cc1ccc(-c2nnc(-c3ccccc3)c(-c3ccccc3)n2)cc1 : No
CCOC(=O)c1c(N)sn(-c2ccccc2C)c1=S : Yes
NC1=NC(=Nc2ccc(Cl)cc2)c2ccccc21 : No
O=C1c2ccccc2C(=O)N1CCCCN(C(=O)c1cc2ccccc2oc1=O)c1ccc(F)cc1F : No
COc1cccc(C(c2sc3nc(C)nn3c2O)N2CCc3ccccc3C2)c1 (centres undefined) : Yes
Brc1ccc(N=Cc2ccccn2)cc1 : No
COc1ccc(CN(CC2CCC(C(=O)O)CC2)C(=S)Nc2ccccc2OC)cc1 (centres undefined) : No
Cc1cccc(NC(=O)N(C)Cc2cccs2)c1 : No
NC(=O)CSc1nnc(C2CC2)n1-c1ccccc1 : No
O=c1cc(O)nc(SCc2ccccc2)[nH]1 : No
O=c1c(-c2ccccc2)c(O)nc2ccccn12 : No
Cc1cccc2sc(N(CCCN(C)C)C(=O)c3cc4ccccc4oc3=O)nc12 : No

====

# target_or_test_system: Mannose-6-phosphate isomerase (Homo sapiens) (UniProt P34949)
# experimental_protocol: inhibitors of human PMI, primary screen, biochemical, fluorescence intensity, coupled assay (AID 1209);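 further: plate controls were DMSO vehicle for no effect and wells lacking substrate for full effect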
# experimental_conditions: purified PMI enzyme, at 20 µM
The whole screen tested about 190,000 compounds, of which about 810 (0.43%) were called active. No stated cut-off is given here; in the data, active means inhibition above about 50%; inactive means the rest. For the sample, actives were picked, then their nearest neighbours and some compounds at random.
Outcomes: active, inactive

CCN(CC)S(=O)(=O)c1cccc(C(=O)N/N=C/c2ccc(O)c(O)c2O)c1 : active
CCOC(=O)c1ccc(CC(=O)c2ccc(O)c(O)c2O)o1 : active
Cc1cc(C(=O)Nc2ccc(C(=O)O)cc2)c(-c2ccccc2)o1 : inactive
COc1ccc(C2=CC(c3ccc(OC)c(OC)c3)NC(=S)N2)cc1 (stereo not given) : inactive
CC(=O)Nc1cccc(Oc2ncnc3scc(-c4ccc(C(C)C)cc4)c23)c1 : inactive
CCN(CC)S(=O)(=O)c1ccc(N2CCOCC2)c(NC(=O)c2cc(-c3ccccn3)nc3ccccc23)c1 : inactive
CCN(CC)S(=O)(=O)c1cccc(C(=O)N/N=C/c2cccc(O)c2O)c1 : inactive
CCCCNC(=O)c1sc(=S)n2c1[nH]c(=O)c1ccccc12 : inactive
CCn1c(C)nc2cc(C(=O)N/N=C/c3ccccc3C)ccc21 : inactive
COc1ccc(-c2cc(C(=O)Nc3cc(S(=O)(=O)N4CCOCC4)ccc3N3CCOCC3)c3ccccc3n2)cc1 : inactive
CCCc1cc(C(=O)Cc2ccc(C(=O)OCC)o2)c(O)cc1O : inactive
O=C(Nc1cc(S(=O)(=O)N2CCOCC2)ccc1N1CCCC1)c1ccc2c(c1)S(=O)(=O)c1ccccc1C2=O : active
CCn1c(C)nc2cc(C(=O)N/N=C/c3cccc(OC)c3O)ccc21 : inactive
CCN(CC)S(=O)(=O)c1ccc(OC)c(NC(=O)Cc2cccs2)c1 : inactive
O=C(Nc1cc(S(=O)(=O)N2CCOCC2)ccc1O)c1ccc2c(c1)S(=O)(=O)c1ccccc1C2=O : inactive
O=C(Nc1ccc(S(=O)(=O)N2CCOCC2)cc1)c1ccc2c(c1)S(=O)(=O)c1ccccc1C2=O : inactive
CCN(CC)S(=O)(=O)c1cccc(C(=O)N/N=C/c2cc(OC)c(O)c(OC)c2)c1 : inactive
COCCNC(=S)Nc1cc(S(=O)(=O)N2CCOCC2)ccc1N1CCCCC1 : active
CCOC(=O)c1sc(=S)n2c1[nH]c(=O)c1ccc(C(=O)OC)cc12 : active
O=C(Nc1cc(S(=O)(=O)N2CCOCC2)ccc1N1CCCCC1)c1cc(-c2ccccn2)nc2ccccc12 : active

====

# target_or_test_system: Mannose-6-phosphate isomerase (Homo sapiens)
# experimental_protocol: inhibitors of human PMI, primary screen, biochemical, fluorescence intensity, coupled assay (AID 1209);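 further: plate controls were DMSO vehicle for no effect and wells lacking substrate for full effect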
# experimental_conditions: purified PMI enzyme, at 20 µM, active compounds read high
The whole screen tested about 190,000 compounds, of which about 810 (0.43%) were called active. For the sample, actives were picked, then their nearest neighbours and some compounds at random.
measured_property: inhibition (%)

O=C(O)/C=C/c1ccc(O)c(O)c1 : 56.4
Cc1ccc(NC(=O)CSc2nnc(-c3ccncc3)n2C)cc1S(=O)(=O)N1CCOCC1 : -7.6
Cc1ccc(C(=O)CSc2n[nH]c(C)n2)cc1 : 48.5
CC(C)(Cc1ccc(O)cc1)NC(=O)CC(=O)N=Nc1c(O)[nH]c2cc(Br)ccc12 : 51.6
Cc1ccc(/C=C2\SC(=S)N(Cc3ccccc3)C2=O)o1 : 18.3
O=C1/C(=C\c2ccco2)SC(=S)N1c1ccccc1 : 22.8
COC1=C(N)C(=O)c2nc(-c3nc(C(=O)O)c(C)c(-c4ccc(OC)c(OC)c4O)c3N)ccc2C1=O : 56
CC(C)Nc1nc(NC(C)C)nc(N(C)C#N)n1 : 3.3
COc1ccc(S(=O)(=O)N2CCOCC2)cc1NC(=O)CN1CCCCCC1 : -4.3
Cc1nc(SCC(=O)c2ccccc2)n[nH]1 : 65.9
COc1cc(/C=C/C(=O)CC(=O)/C=C/c2ccc(O)c(OC)c2)ccc1O : 5.3
COc1ccc(-c2nc(N)ncc2-c2csc(C)n2)c(O)c1OC : 6.8
Cc1ccc2nc(SCC(=O)NC(=O)NCc3ccco3)[nH]c2c1 : 6.4
O=Cc1ccc(O)c(O)c1 : 25.6
COc1ccc(-c2n[nH]c(C)c2-c2ccc(Cl)cc2)c(O)c1OC : 6.7
Cc1cc(C)n(C(=O)c2ccncc2)n1 : 6.1
CC(NC(=O)c1ccccc1F)c1nnc(SCC(=O)N2CCN(c3ccccc3)CC2)n1C (stereo not drawn) : -2.3
O=c1[nH][nH]c(-c2ccccc2)c1C=Nc1ccc(Cl)cc1 : -4.3
CCOc1ccc(C2=Nn3c(nnc3-c3ccco3)SC2)cc1 : 8.1
O=C(O)CN1C(=O)/C(=C/c2ccc(SCc3ccccc3)o2)SC1=S : 85.2
O=[N+]([O-])c1ccc(N2CCN(S(=O)(=O)c3ccc4ccccc4c3)CC2)cc1NCC1CCCO1 (stereo not drawn) : 5.7
Cc1cccc(C)c1-n1cccc1/C=C1\SC(=S)N(c2cccc(C(=O)O)c2)C1=O : 1.3
O=C1NC(=S)S/C1=C/c1ccc(N2CCOCC2)o1 : -25.3

====

Listed compounds paired with reported inhibition
# target_or_test_system: Mannose-6-phosphate isomerase (Homo sapiens) (UniProt P34949)
# experimental_protocol: inhibitors of human PMI, primary screen, biochemical, fluorescence intensity, coupled assay (AID 1209);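 further: plate controls were DMSO vehicle for no effect and wells lacking substrate for full effect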
# experimental_conditions: purified PMI enzyme, at 20 µM, active compounds read high
Among all 190,000 compounds or so, about 810 (0.43%) were called active. This is one part of a sample in which actives are shown more often than they occur.
measured_property: inhibition (%)

CCCC(=O)NCCCc1nc2ccccc2n1C(C)C : 2.7
COc1ccc(NS(=O)(=O)c2ccc(N3CCCC3)c(NC(=S)Nc3cccc(S(=O)(=O)N(C)C)c3)c2)cc1 : 69.9
CNC(=O)/C(C#N)=C/c1ccc(-c2ccc(OC)cc2[N+](=O)[O-])o1 : 28.2
O=C(Nc1cc(N2CCOCC2)ncn1)NC1(C(F)(F)F)Oc2ccccc2O1 : 35.5
COc1ccc(NS(=O)(=O)c2ccc(N3CCCC3)c(NC(=S)Nc3ccc(SC(F)F)cc3)c2)cc1 : 59
Cc1cc(NC(=O)NC2(C(F)(F)F)Oc3ccc(Cl)cc3O2)no1 (centres undefined) : 52
CC(C)NC(=O)C1CCN(Cc2cnn(-c3ccccc3)c2-n2cccc2)CC1 : -1.9
CCOc1ccc2nc(N(CCN(CC)CC)C(=O)c3cccc([N+](=O)[O-])c3)sc2c1 : 33.9
C(=Nc1cccc2c(N=Cc3ccco3)cccc12)c1ccco1 : 82.9
O=C(Nc1cc(N2CCOCC2)ncn1)NC1(C(F)(F)F)Oc2ccc(Cl)cc2O1 (centres undefined) : 74.1
O=S(=O)(Nc1ccc(Cl)cc1)c1ccc(N2CCOCC2)c(NC(=S)NCCN2CCOCC2)c1 : 12.4
CCc1c(C)sc(NC(=O)C2CCCCC2C(=O)O)c1C(N)=O (centres undefined) : 72.1
Cc1ccc(NS(=O)(=O)c2cc(C(=O)Nc3cccc(N(C)S(C)(=O)=O)c3)ccc2C)c(C)c1 : 5.7
O=C(NCc1ccccc1)c1cnc(-c2ccccn2)nc1C(F)(F)F : -3.7
O=C(NCCN1CCOCC1)NC1(C(F)(F)F)Oc2ccc(Cl)cc2O1 (centres undefined) : 60.2
CCOC(=O)Cc1csc(NC(=O)CSc2nnc(-c3ccc(F)cc3)o2)n1 : -5.5
O=C(NCc1ccccc1)c1cccc(OCC(=O)N2CCN(C(=O)c3ccco3)CC2)c1 : 2
C(=N/n1c2ccccc2c2ccccc21)/c1ccco1 : 18.5
COC(=O)CCC(=O)Nc1cc(S(=O)(=O)Nc2ccc(Cl)cc2)ccc1N1CCOCC1 : 21.8
Cc1sc(NC(=O)C2CCCCC2C(=O)O)c(C(N)=O)c1C (centres undefined) : -5.3
S=c1[nH]c2ccc(Cl)cc2[nH]1 : 50.2
C=CCn1c(NCCOC)nc2c1c(=O)n(C)c(=O)n2C : -2.8
CCN(CC)CCN(C(=O)c1ccc([N+](=O)[O-])cc1)c1nc2ccc(OC)cc2s1 : 1.1
COc1ccc(OC)c(C(=O)COC(=O)c2cc(C)oc2C)c1 : -24.4
CCN(CC)S(=O)(=O)c1ccc(N2CCCC2)c(NS(=O)(=O)c2ccc(OC)cc2)c1 : -1.6
Cc1cc(N)n(-c2ccccc2C)n1 : 11.2
O=C(Cn1cnc2ccccc2c1=O)NCc1ccc2c(c1)OCO2 : 2
CCn1c(SCC(=O)N2CCCc3ccccc32)nnc1-c1ccoc1C : -2.9
COc1ccc2[nH]c(=S)[nH]c2c1 : 16.4
COc1ccc(NS(=O)(=O)c2ccc(N3CCOCC3)c(NC(=O)c3ccccc3Cl)c2)cc1 : -2.5
CCn1c(SCC(=O)N/N=C/c2ccc(C)o2)nnc1-c1ccc(C)cc1 : 0.6
COc1ccc(NS(=O)(=O)c2ccc(N3CCOCC3)c(NC(=O)C(C)C)c2)cc1 : -20
O=C(NCc1cccnc1)NC1(C(F)(F)F)Oc2ccc(Cl)cc2O1 (centres undefined) : 22.4
COc1cccc(NC(=O)c2ccc(-c3ccccc3[N+](=O)[O-])o2)c1 : -13.3
O=C(Nc1cc(N2CCOCC2)ncn1)c1ccc(F)cc1 : 5.3
CCCCc1nc2c(=O)[nH]c3ccccc3c2o1 : 0.8
CCCCCCc1nc2c(=O)[nH]c3ccccc3c2o1 : 6.6
CN(C)c1ccc(N=Cc2ccco2)cc1 : 44.6
C=CCNC(=S)Nc1ccc(Cl)c(S(=O)(=O)N2CCOCC2)c1 : -6.8
O=S(=O)(Nc1ccc(Cl)cc1)c1ccc(N2CCOCC2)c(NC(=S)NC2CC2)c1 : 61.3
Cc1cc(NC(=S)N(CCCN2CCN(C)CC2)Cc2ccco2)ccc1Cl : 3.6
CN(C)C(=O)N1CCC(C(=O)NCc2ccccc2Cl)CC1 : 3.2
CC1CCCN(Cc2c(O)ccc3c(=O)c(-c4nc5ccccc5s4)c(N)oc23)C1 (centres undefined) : 6.9
COc1ccc(-c2ccc(C(=O)O)o2)c([N+](=O)[O-])c1 : 73.7
